Collected IC50 values appear next to each entry.
molecular target: Acetylcholinesterase (Homo sapiens, UniProt P22303); experiment: In vitro inhibitory activity against human acetylcholinesterase
Sequence (P22303 whole entry): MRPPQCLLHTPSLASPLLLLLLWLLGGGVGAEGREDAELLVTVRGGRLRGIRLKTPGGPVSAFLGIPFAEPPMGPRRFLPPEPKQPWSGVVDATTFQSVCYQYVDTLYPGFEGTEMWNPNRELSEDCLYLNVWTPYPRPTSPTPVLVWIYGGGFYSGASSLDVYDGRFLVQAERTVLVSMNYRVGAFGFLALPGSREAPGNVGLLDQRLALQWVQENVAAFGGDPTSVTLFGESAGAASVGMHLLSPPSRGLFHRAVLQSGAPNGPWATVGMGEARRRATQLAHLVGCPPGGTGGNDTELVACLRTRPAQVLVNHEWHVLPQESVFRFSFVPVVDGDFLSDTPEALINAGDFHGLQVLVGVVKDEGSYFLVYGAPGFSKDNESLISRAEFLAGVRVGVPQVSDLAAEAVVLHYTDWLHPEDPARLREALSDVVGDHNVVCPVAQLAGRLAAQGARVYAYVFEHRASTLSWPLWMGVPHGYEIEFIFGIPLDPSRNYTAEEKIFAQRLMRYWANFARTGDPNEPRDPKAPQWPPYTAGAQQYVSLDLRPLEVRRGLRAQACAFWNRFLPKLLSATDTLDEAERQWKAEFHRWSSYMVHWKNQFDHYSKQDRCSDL
Value kind: IC50 (nM)

Compound	Units of measure	Recorded measurement
CCCCCCCNC(=O)Oc1ccc2c(c1)C1CCN(CC)C2C1 (configuration not stated)	nM	169
CCN1CCC2CC1c1ccc(OC(=O)NC)cc12 (configuration not stated)	nM	171
CCCCCCNC(=O)Oc1ccc2c(c1)C1CCN(CC)C2C1 (configuration not stated)	nM	125
CCCCCCNC(=O)Oc1ccc2c(c1)C1(C)CCN(CC)C2C1 (configuration not stated)	nM	133
CCCCCCCNC(=O)Oc1ccc2c(c1)C1CCN(C)C2C1 (configuration not stated)	nM	143
CCCCNC(=O)Oc1ccc2c(c1)C1CCN(CC)C2C1 (configuration not stated)	nM	206
CCCCCCCNC(=O)Oc1ccc2c(c1)C1(C)CCN(CC)C2C1 (configuration not stated)	nM	159

Cited source for all entries: ChEMBL document CHEMBL1127559
